Data origin, for the record: patent US7868028B2

Assign pIC50 to each entry below.
Note on units: pIC50 is unitless, being -log10 of a concentration expressed in mol/L.

[ask] Request body: readout pIC50, system voltage-gated sodium channel (site 1, [3H]Saxitoxin binding), query CC(C)(C)c1ccc(Cn2c(=N)n(CC(O)COc3ccccc3)c3ccccc32)cc1.Cl (stereo not drawn) . Return the value.
[reply] 4.47

[ask] Request body: readout pIC50, system voltage-gated sodium channel (site 1, [3H]Saxitoxin binding), query Cl.N=c1n(Cc2ccccc2)c2ccccc2n1CC(O)COc1ccc(Cl)cc1 (stereo not drawn) . Return the value.
[reply] 4.82

[ask] Request body: readout pIC50, system voltage-gated sodium channel (site 1, [3H]Saxitoxin binding), query Br.N=c1n(Cc2cccc3ccccc23)c2ccccc2n1CC(O)COc1ccccc1 (racemic) . Return the value.
[reply] 3.97

[ask] Request body: readout pIC50, system voltage-gated sodium channel (site 1, [3H]Saxitoxin binding), query Br.CCCCCCCCCCCn1c(=N)n(CC(O)COc2ccccc2)c2ccccc21 (racemic) . Return the value.
[reply] 3.93

[ask] Request body: readout pIC50, system voltage-gated sodium channel (site 1, [3H]Saxitoxin binding), query Cl.N=c1n(Cc2ccccc2)c2ccccc2n1CC(O)c1ccc(Cl)cc1 (stereo not drawn) . Return the value.
[reply] 4.22

[ask] Request body: readout pIC50, system voltage-gated sodium channel (site 1, [3H]Saxitoxin binding), query Br.COc1ccc(Cn2c(=N)n(CC(O)COc3ccccc3)c3ccccc32)cc1 (racemic) . Return the value.
[reply] 4.17

---

# log10 IC50 per entry for voltage-gated sodium channel (site 1, [3H]Saxitoxin binding)
log10 IC50, µM

[ask] May I ask what log10 IC50 has been recorded for Br.N=c1n(Cc2ccc(F)cc2)c2ccccc2n1CC(O)COc1ccccc1 (racemic) [Compound 70] ?
[reply] 1.99

[ask] May I ask what log10 IC50 has been recorded for Br.N=c1n(Cc2ccccc2)c2ccccc2n1CC(O)COc1ccccc1 (centres unmarked) [Compound 3, hydrobromide] ?
[reply] 1.32

[ask] May I ask what log10 IC50 has been recorded for Cl.N=c1n(CCN2CCCCC2)c2ccccc2n1CC(O)COc1ccccc1 (racemic) [Compound 22] ?
[reply] 2.32

[ask] May I ask what log10 IC50 has been recorded for Cl.Cn1c(=N)n(CC(O)c2ccc(Cl)c(Cl)c2)c2ccccc21 (centres unmarked) [Compound 13] ?
[reply] 2.37

[ask] May I ask what log10 IC50 has been recorded for Cl.N=c1n(Cc2ccccc2)c2ccccc2n1CC(O)c1cccs1 (racemic) [Compound 6] ?
[reply] 1.63

[ask] May I ask what log10 IC50 has been recorded for Cc1ccc(Cn2c(=N)n(CC(O)COc3ccccc3)c3ccccc32)cc1.Cl (racemic) [Compound 4] ?
[reply] 1.32

[ask] May I ask what log10 IC50 has been recorded for Br.N=c1n(CCN(Cc2ccccc2)Cc2ccccc2)c2ccccc2n1CC(O)COc1ccccc1 (racemic) [Compound 76] ?
[reply] 2.00

[ask] May I ask what log10 IC50 has been recorded for CCn1c(=N)n(CC(O)c2ccc(Cl)c(Cl)c2)c2ccccc21.Cl (centres unmarked) [Compound 9] ?
[reply] 1.95

---

system: voltage-gated sodium channel (site 1, [3H]Saxitoxin binding); parameters: species or system rat
property.measured: % inhibition (%)
Dear colleague, please return just the value in %, with no unit written.

[ask] May I ask what % inhibition has been recorded for CCN(CC)CCn1c(=N)n(CC(O)c2ccc(OC)c(OC)c2)c2ccccc21.Cl (racemic) ?
[reply] 19

[ask] May I ask what % inhibition has been recorded for Cl.N=c1n(CCN2CCCCC2)c2ccccc2n1CC(O)c1ccccc1 (centres unmarked) ?
[reply] 18

[ask] May I ask what % inhibition has been recorded for CC(C)(C)C(O)Cn1c(=N)n(Cc2ccccc2)c2ccccc21.Cl (centres unmarked) ?
[reply] 17

---

Assign IC50 to each entry below.
Dear colleague, please return just the value in µM, with no unit written.

[ask] Request body: readout IC50, system voltage-gated sodium channel (site 1, [3H]Saxitoxin binding), query CCCCn1c(=N)n(CC(O)COc2ccc(Cl)cc2)c2ccccc21.Cl (racemic) [Compound 10] . Return the value.
[reply] 96

[ask] Request body: readout IC50, system voltage-gated sodium channel (site 1, [3H]Saxitoxin binding), query CCCCn1c(=N)n(CC(O)COc2ccccc2)c2ccccc21.Cl (racemic) [Compound 8] . Return the value.
[reply] 87

[ask] Request body: readout IC50, system voltage-gated sodium channel (site 1, [3H]Saxitoxin binding), query Br.N=c1n(Cc2ccccc2)c2ccccc2n1CC(O)Cc1ccccc1 (racemic) [Compound 77] . Return the value.
[reply] 81
